Attribution: ChEMBL document CHEMBL3885881

# Species: Rattus norvegicus
# testProtocol: DrugMatrix - Regimen: Daily Repeat
# Assay type: toxicity, organism-based, Sprague-Dawley
# Set-up: regimen Daily Repeat, gender Male, age 6-8 weeks
# assayConditions: in vivo, po, 0 mg/kg, 72 h, tissue Plasma, route oral GAVAGE, dose level Control, time 3 day, […]
Hi there, I'd appreciate the recorded TOTAL PROTEIN for every entry that follows.
Numbers only, in G/DL.

Below are some compounds; for each one, tell me its TOTAL PROTEIN.
1. CS(=O)(=O)c1ccc(C2=C(c3ccccc3)C(=O)OC2)cc1
2. Cc1cccc(C)c1NC(=O)C(C)N (centres undefined) [TOCAINIDE]
3. Oc1ncnc2[nH]ncc12
4. O=C(Nc1ccc(Cl)c(Cl)c1)c1cc(Cl)cc(Cl)c1O [3,3',4',5-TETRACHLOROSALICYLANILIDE]
5. COc1ccccc1OCCNCC(O)COc1cccc2[nH]c3ccccc3c12 (centres undefined)
6. c1ccc2c(c1)Nc1ccccc1S2

OUT:
5.8
5.77
5.68
5.7
5.77
5.8

Respectfully, I request TOTAL PROTEIN for each entry included below.
1. CC(C)(c1ccc(O)cc1)c1ccc(O)cc1
2. CC#C[C@]1(O)CC[C@H]2[C@@H]3CCC4=CC(=O)CCC4=C3[C@@H](c3ccc(N(C)C)cc3)C[C@@]21C
3. CO[C@H]1O[C@@H]2O[C@@]3(C)CC[C@H]4[C@H](C)CC[C@@H]([C@H]1C)[C@@]24OO3

OUT:
1. 5.88
2. 5.63
3. 5.92

* * *

Can you tell me NUCLEATED RED BLOOD CELLS for the items I'm about to list?
# Species: Rattus norvegicus
# testProtocol: DrugMatrix - Regimen: Daily Repeat
# Assay type: toxicity, organism-based, Sprague-Dawley
# Set-up: regimen Daily Repeat, gender Male, age 6-8 weeks
# assayConditions: in vivo, po, 0 mg/kg, 72 h, tissue Blood, route oral GAVAGE, dose level Control, time 3 day, […]

// below: answered compounds
compound: O=C(O)COC(=O)Cc1ccccc1Nc1c(Cl)cccc1Cl [ACECLOFENAC]
NUCLEATED RED BLOOD CELLS: 0.17 /100WBC
--
compound: CC#C[C@]1(O)CC[C@H]2[C@@H]3CCC4=CC(=O)CCC4=C3[C@@H](c3ccc(N(C)C)cc3)C[C@@]21C [MIFEPRISTONE]
NUCLEATED RED BLOOD CELLS: 0 /100WBC

Give measured NUCLEATED RED BLOOD CELLS for every item shown.
1. CC(C)(c1ccc(O)cc1)c1ccc(O)cc1 [BISPHENOL A]
2. CO[C@H]1O[C@@H]2O[C@@]3(C)CC[C@H]4[C@H](C)CC[C@@H]([C@H]1C)[C@@]24OO3
3. COC(=O)Nc1nc2ccc(C(=O)c3ccccc3)cc2[nH]1 [MEBENDAZOLE]
4. Oc1ncnc2[nH]ncc12 [ALLOPURINOL]
5. CCOC(=O)C1=C(C)NC(C)=C(C(=O)OCC)C1c1ccccc1/C=C/C(=O)OC(C)(C)C [LACIDIPINE]
6. CS(=O)(=O)c1ccc(C2=C(c3ccccc3)C(=O)OC2)cc1 [ROFECOXIB]
7. c1ccc2c(c1)Nc1ccccc1S2 [PHENOTHIAZINE]
8. Cc1cccc(C)c1NC(=O)C(C)N (centres undefined) [TOCAINIDE]

OUT:
["0 /100WBC", "0 /100WBC", "0.17 /100WBC", "0 /100WBC", "0.33 /100WBC", "0 /100WBC", "0 /100WBC", "0 /100WBC"]

# batch: return NUCLEATED RED BLOOD CELLS for each of the 3 compounds below
1. CCC(C)(C)C(=O)O[C@H]1C[C@@H](C)C=C2C=C[C@H](C)[C@H](CC[C@@H]3C[C@@H](O)CC(=O)O3)[C@H]21 [SIMVASTATIN]
2. COc1ccccc1OCCNCC(O)COc1cccc2[nH]c3ccccc3c12 (centres undefined) [CARVEDILOL]
3. C#C[C@]1(O)CC[C@H]2[C@@H]3CCC4=CC(=O)CC[C@@H]4[C@H]3CC[C@@]21C [NORETHINDRONE]

OUT:
1. 0 /100WBC
2. 0.17 /100WBC
3. 0 /100WBC

IN: Name the recorded NUCLEATED RED BLOOD CELLS for O=C(Nc1ccc(Cl)c(Cl)c1)c1cc(Cl)cc(Cl)c1O [3,3',4',5-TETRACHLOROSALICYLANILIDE] .
OUT: 0 /100WBC

* * *

So I've got a bunch of molecules here, and I need their CREATINE PHOSPHOKINASE values.
# Species on record: Rattus norvegicus
# testProtocol: DrugMatrix - Regimen: Daily Repeat
# Assay type: toxicity, organism-based, Sprague-Dawley
# Parameters: regimen Daily Repeat, gender Male, age 6-8 weeks
# assayConditions: in vivo, po, 0 mg/kg, 72 h, tissue Plasma, route oral GAVAGE, dose level Control, time 3 day, vehicle 100 % WATER
One number for each entry, in u/L.

In the examples that follow, each entry is paired with its recorded CREATINE PHOSPHOKINASE.
molecule: C1CCN2C[C@@H]3C[C@@H](CN4CCCC[C@@H]34)[C@H]2C1 [SPARTEINE]
CREATINE PHOSPHOKINASE [u/L]: 372.83
//
molecule: Cc1cc(C(C)(C)C)c(O)c(C)c1CC1=NCCN1 [OXYMETAZOLINE]
CREATINE PHOSPHOKINASE [u/L]: 263.67
//
molecule: Cc1cn([C@H]2C=C[C@@H](CO)O2)c(=O)[nH]c1=O [STAVUDINE]
CREATINE PHOSPHOKINASE [u/L]: 585
//
molecule: CCN(CC)C(=S)SSC(=S)N(CC)CC
CREATINE PHOSPHOKINASE [u/L]: 601.83

Okay, next one:
IN: # get_value(readout='CREATINE PHOSPHOKINASE', item= CCC1(c2ccccc2)C(=O)NC(=O)NC1=O [PHENOBARBITAL] )
OUT: 576.83

* * *

# Organism: Rattus norvegicus
# testProtocol: DrugMatrix - Regimen: Daily Repeat
# Assay type: toxicity, organism-based, Sprague-Dawley
# Design: regimen Daily Repeat, gender Male, age 6-8 weeks
# assayConditions: in vivo, po, 1500 mg/kg, 120 h, tissue Blood, route oral GAVAGE, dose level High, time 5 day, vehicle .5 % CMC
If the reported LYMPHOCYTE equals or exceeds 90%, assign Met. If not, assign Not met.

molecule: COc1ccc(Cl)cc1C(=O)NCCc1ccc(S(=O)(=O)NC(=O)NC2CCCCC2)cc1 [GLYBURIDE]
assignedCategory: Met
//
molecule: CC[C@H]1OC(=O)[C@H](C)[C@@H](O[C@H]2C[C@@](C)(OC)[C@@H](O)[C@H](C)O2)[C@H](C)[C@@H](O[C@@H]2O[C@H](C)C[C@H](N(C)C)[C@H]2O)[C@](C)(O)C[C@@H](C)C(=O)[C@H](C)[C@@H](O)[C@]1(C)O
assignedCategory: Not met
//
molecule: COc1cc(/C=C/C(=O)O)ccc1O [FERULATE]
assignedCategory: Met
//
molecule: O=C(O)CCc1nc(-c2ccccc2)c(-c2ccccc2)o1
assignedCategory: Not met

IN: For this molecule, is measured LYMPHOCYTE 90% or higher? Cc1ccc(S(=O)(=O)NC(=O)NN2CCCCCC2)cc1 [TOLAZAMIDE]
OUT: Not met

* * *

Would you mind telling me the reported TOTAL BILIRUBIN of each entry?
# Species: Rattus norvegicus
# testProtocol: DrugMatrix - Regimen: Daily Repeat
# Format: toxicity, organism-based, Sprague-Dawley
# Set-up: regimen Daily Repeat, gender Male, age 6-8 weeks
# assayConditions: in vivo, po, 0 mg/kg, 120 h, tissue Plasma, route oral GAVAGE, dose level Control, time 5 day, vehicle 100 % WATER
Answers are plain numbers, in mg/dL.

molecule: C1CCN2C[C@@H]3C[C@@H](CN4CCCC[C@@H]34)[C@H]2C1
TOTAL BILIRUBIN, mg/dL: 0.17

Could you report TOTAL BILIRUBIN for every entry in the following list?
1. Cc1cn([C@H]2C=C[C@@H](CO)O2)c(=O)[nH]c1=O
2. NN [HYDRAZINE]
3. CCC1(c2ccccc2)C(=O)NC(=O)NC1=O
4. CCN(CC)C(=S)SSC(=S)N(CC)CC

OUT:
0.22
0.22
0.13
0.23

* * *

# Species: Rattus norvegicus
# testProtocol: DrugMatrix - Regimen: Daily Repeat
# Assay type: toxicity, organism-based, Sprague-Dawley
# Set-up: regimen Daily Repeat, gender Male, age 6-8 weeks
# assayConditions: in vivo, po, 1500 mg/kg, 72 h, tissue Plasma, route oral GAVAGE, dose level High, time 3 day, vehicle .5 % CMC
reportedEndpoint: POTASSIUM (MEQ/L)
Answers are plain numbers, in MEQ/L.

compound: COc1cc(/C=C/C(=O)O)ccc1O [FERULATE]
uom: MEQ/L
POTASSIUM: 6.23

Record POTASSIUM per entry; entries follow.
1. O=C(O)CCc1nc(-c2ccccc2)c(-c2ccccc2)o1
2. Cc1ccc(S(=O)(=O)NC(=O)NN2CCCCCC2)cc1 [TOLAZAMIDE]
3. COc1ccc(Cl)cc1C(=O)NCCc1ccc(S(=O)(=O)NC(=O)NC2CCCCC2)cc1 [GLYBURIDE]
4. CC[C@H]1OC(=O)[C@H](C)[C@@H](O[C@H]2C[C@@](C)(OC)[C@@H](O)[C@H](C)O2)[C@H](C)[C@@H](O[C@@H]2O[C@H](C)C[C@H](N(C)C)[C@H]2O)[C@](C)(O)C[C@@H](C)C(=O)[C@H](C)[C@@H](O)[C@]1(C)O

OUT:
1. 5.96
2. 5.38
3. 6.9
4. 6.72
